These entries and their values trace back to the supplement of paper PMC5579334.

Tested on: HS-PSS
PROTOCOL_TEXT: % inhibition of CellTiter-Glo viability at highest tested concentration (72 h), relative to DMSO and benzethonium chloride controls; higher = more inhibition
Consider the following molecules; for each one, report its % inhibition.
The reply should be a number in %, with the unit left off.

get_value(item= Cc1cc(C)c(/C=C2\C(=O)Nc3ccccc32)[nH]1 [Semaxanib] (max concentration tested 10000 nM) , readout=% inhibition) returns 0.19

get_value(item= COc1cccc2c1C(=O)c1c(O)c3c(c(O)c1C2=O)C[C@@](O)(C(=O)CO)C[C@@H]3O[C@H]1C[C@H](N)[C@H](O)[C@H](C)O1 [Doxorubicin] (max concentration tested 1000 nM) , readout=% inhibition) returns 96.1

get_value(item= O=C(Nc1cccc(C(F)(F)F)c1)Nc1cc(S(=O)(=O)NC2CC2)ccc1-c1ccsc1 [AGI-6780] (max concentration tested 10000 nM) , readout=% inhibition) returns 24.7

get_value(item= O=C(NC[C@H](O)CN1CCc2ccccc2C1)c1cc(NC2COC2)ncn1 (max concentration tested 10000 nM) , readout=% inhibition) returns 17.6

get_value(item= CC(=O)[C@]1(O)Cc2c(O)c3c(c(O)c2[C@@H](O[C@H]2C[C@H](N)[C@H](O)[C@H](C)O2)C1)C(=O)c1ccccc1C3=O [Idarubicin] (max concentration tested 1000 nM) , readout=% inhibition) returns 92.3

get_value(item= O=NN(CCCl)C(=O)NCCCl [Carmustine] (max concentration tested 10000 nM) , readout=% inhibition) returns 10.6

---

Consider the following molecules; for each one, report its relative IC50.
System: HS-PSS
PROTOCOL_TEXT: relative IC50 (inflection point of fitted dose-response curve, CellTox-Green cytotoxicity, 72 h; top asymptote may be below 50%); higher = less potent

get_value(item= CCN1CCN(Cc2ccc(-c3cc4c(N[C@H](C)c5ccccc5)ncnc4[nH]3)cc2)CC1 [NVP-AEE788] , readout=relative IC50) returns > 2.5 µM

get_value(item= N[C@@H]1CCCN(c2c(/C=C3\SC(=O)NC3=O)cccc2-c2ccccc2)C1 [AZD1208] , readout=relative IC50) returns > 10 µM

get_value(item= C#Cc1cccc(Nc2ncnc3cc4c(cc23)OCCOCCOCCO4)c1 [Icotinib] , readout=relative IC50) returns > 10 µM

get_value(item= O=C1NC(=O)/C(=C/c2ccc3nccc(-c4ccncc4)c3c2)S1 , readout=relative IC50) returns > 10 µM

get_value(item= CC[C@H](CC#N)OC(=O)N[C@@H](C)c1cccc(NC(=O)Nc2ccc(-c3cnco3)c(OC)c2)c1 [AVN944] , readout=relative IC50) returns > 10 µM

get_value(item= COc1cc2c(N3CCN(C(=O)Nc4ccc(OC(C)C)cc4)CC3)ncnc2cc1OCCCN1CCCCC1 [Tandutinib] , readout=relative IC50) returns > 1 µM

get_value(item= NC1(c2ccc(-c3nc4ccn5c(=O)[nH]nc5c4cc3-c3ccccc3)cc2)CCC1 [MK-2206] , readout=relative IC50) returns > 1 µM

get_value(item= C[C@@H]1COC(Nc2ccc3ncnc(Nc4ccc(OCc5nccs5)c(Cl)c4)c3c2)=N1 [Varlitinib] , readout=relative IC50) returns > 10 µM

---

Test system: STS26T
PROTOCOL_TEXT: relative IC50 (inflection point of fitted dose-response curve, CellTox-Green cytotoxicity, 72 h; top asymptote may be below 50%); higher = less potent
Consider the following compounds; for each one, report its relative IC50.

get_value(item= CO[C@H](C(=O)[C@@H](O)[C@@H](C)O)[C@@H]1Cc2cc3cc(O[C@H]4C[C@@H](O[C@H]5C[C@@H](O)[C@H](O)[C@@H](C)O5)[C@@H](O)[C@@H](C)O4)c(C)c(O)c3c(O)c2C(=O)[C@H]1O[C@H]1C[C@@H](O[C@H]2C[C@@H](O[C@H]3C[C@](C)(O)[C@H](O)[C@@H](C)O3)[C@H](O)[C@@H](C)O2)[C@H](O)[C@@H](C)O1 , readout=relative IC50) returns 33.3 nM

get_value(item= O=NN(CCCl)C(=O)NCCCl , readout=relative IC50) returns > 10000 nM

get_value(item= S=P(N1CC1)(N1CC1)N1CC1 , readout=relative IC50) returns > 50000 nM

get_value(item= COc1cc2c(N3CCN(C(=O)Nc4ccc(OC(C)C)cc4)CC3)ncnc2cc1OCCCN1CCCCC1 , readout=relative IC50) returns > 1000 nM

get_value(item= CCC/C=C/C=C/C(=O)O[C@H]1/C(=C/C(=O)OC)C[C@H]2C[C@H]([C@@H](C)O)OC(=O)C[C@H](O)C[C@@H]3C[C@H](OC(C)=O)C(C)(C)[C@](O)(C[C@@H]4C/C(=C/C(=O)OC)C[C@H](/C=C/C(C)(C)[C@]1(O)O2)O4)O3 , readout=relative IC50) returns > 100 nM

get_value(item= CC(O)(CS(=O)(=O)c1ccc(F)cc1)C(=O)Nc1ccc(C#N)c(C(F)(F)F)c1 (stereo unspecified) [Bicalutamide] , readout=relative IC50) returns > 10000 nM
